- Target or test system: T1, human neuropeptide Y2 receptor (human, UniProt P49146 1-381)
- T1 sequence (looked up): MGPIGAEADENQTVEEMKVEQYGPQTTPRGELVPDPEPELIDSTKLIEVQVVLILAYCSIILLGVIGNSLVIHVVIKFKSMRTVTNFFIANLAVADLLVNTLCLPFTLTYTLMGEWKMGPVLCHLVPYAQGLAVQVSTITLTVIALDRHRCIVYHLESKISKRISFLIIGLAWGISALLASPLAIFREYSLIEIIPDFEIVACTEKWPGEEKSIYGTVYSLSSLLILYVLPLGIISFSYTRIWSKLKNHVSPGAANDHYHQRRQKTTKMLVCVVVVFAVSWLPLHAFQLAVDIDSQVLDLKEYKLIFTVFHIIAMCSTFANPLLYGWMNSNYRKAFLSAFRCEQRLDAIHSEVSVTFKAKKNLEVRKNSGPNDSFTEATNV
- Method summary: cell-based or functional assay
Starred links: 1 amine or outer side, 2 acyl side, 3 side chain; linkers in the order of their positions; H or OH if unused. Non-standard residues stand in square brackets, D forms with d. Groups on a side chain read outwards from the residue. No end group written: not given here. *: point of attachment. C18 diacid = O=C(O)CCCCCCCCCCCCCCCCC(=O)*; γGlu = O=C(O)[C@H](CCC(=O)[*:2])N[*:1]; AEEA = NCCOCCOCC(=O)O; Aib = CC(C)(N)C(=O)O
Recorded EC50 CreLuc hNPY2R 100% hP values for a group of binders are listed next.

| Binder | Unit abbreviation | EC50 CreLuc hNPY2R 100% hP |
| --- | --- | --- |
| YXEGTFTSDYSIXLEKQAQXAFVQWLIKGGPSSGASLRHYYNWLTRQRY (Aib at 2, 13, 20; K28 side chain: C18DA-gGlu-gGlu-gGlu-gGlu-gGlu-gGlu-eLys; C-terminal NH2) [Compound 170] | nM | 33.2 |
| Y[Aib]EGTFTSDYSI[Aib]LEKQAQ[Aib]AFVEWLIK([AEEA-AEEA-γGlu-γGlu-γGlu-γGlu-C18 diacid])GGPSSPASLRHYYNWLTRQRY-NH2 [Compound 158] | nM | 39.9 |
| Y[Aib]EGTFTSDYSI[Aib]LEKQAQ[Aib]AFVEWLIKGGPSSYASLRHYYNWLTRQRY-NH2 (not fully specified (residue 28)) [Compound 126] | nM | 41.8 |
| YXEGTFTSDYSIXLEKQAQXAFVEWLIKGGPSSGASXRHYYNWLTRQRY (Aib at 2, 13, 20; Tle at 37; K28 side chain: C20DA-gGlu-gGlu-gGlu-gGlu-gGlu-gGlu-eLys; C-terminal NH2) [Compound 103] | nM | 50.7 |
| YXEGTFTSDYSIXLERQAQXAFVEWLIKGGPSSGASLRHYYNWLTRQRY (Aib at 2, 13, 20; K28 side chain: C20DA-gGlu-gGlu-gGlu-gGlu-gGlu-gGlu-eLys; C-terminal NH2) [Compound 131] | nM | 71.5 |
| Y[Aib]EGTFTSDYSI[Aib]LEEQAQ[Aib]AFVEWLIKGGPSSGASLRHYYNWLTRQRY-NH2 (not fully specified (residue 28)) [Compound 100] | nM | 48 |
| YXEGTFTSDYSIXLEKQAQXAFVEWLIKGGPSEPESLRHYYNWLTRQRY (Aib at 2, 13, 20; K28 side chain: C20DA-gGlu-gGlu-gGlu-gGlu-gGlu-gGlu-eLys; C-terminal NH2) [Compound 122] | nM | 78.9 |
| YXEGTFTSDYSIXLEKQAQXAFVEWLIKGGPSSGESLRHYYNWLTRQRY (Aib at 2, 13, 20; K28 side chain: C20DA-gGlu-gGlu-gGlu-gGlu-gGlu-gGlu-eLys; C-terminal NH2) [Compound 127] | nM | 66.3 |
